- System: EKVX NSCLC
- ASSAY NOTES: NCI tumour cell line growth inhibition, 48 h
PROPERTY: TGI

>>> df
                                   molecule  assay_target    result
0  COC(=O)C1=C(C(=O)OC)C2C=CC1C1C(Cl)=C(Cl)C21 (stereo not drawn)    EKVX NSCLC  > 100 µM

Challenge: Kindly state the measured TGI obtained for O=C1OCc2c1cc1ccc(O)c(OC3OC(CO)C(O)C(O)C3O)c1c2-c1ccc2c(c1)OCO2 (stereo not drawn) with EKVX NSCLC.
Response given: > 100 µM

Challenge: Kindly state the measured TGI obtained for `COc1ccc2[nH]c(O)c(/C=c3/cc4c(c(-c5cc(OC)c(OC)c(OC)c5)n3)=Nc3ccccc3-4)c2c1` with EKVX NSCLC.
Response given: > 100 µM

Challenge: Kindly state the measured TGI obtained for `COc1cc(O)c(/C=N/N=C(\N)NO)c(OC)c1` with EKVX NSCLC.
Response given: > 10 µM

Challenge: Kindly state the measured TGI obtained for OC1C2[C@@H](O)CCCN2C[C@@H](O)[C@H]1O (stereo partly drawn) with EKVX NSCLC.
Response given: > 100 µM

Challenge: Kindly state the measured TGI obtained for `Cc1nc2c(nc1Cl)nc(Oc1ccc(Cl)cc1)c1ccccc12` with EKVX NSCLC.
Response given: > 100 µM

---

- Test system: NCI-H522 lung
- ASSAY NOTES: NCI tumour cell line growth inhibition, 48 h
# TGI per entry

                                   molecule    result
0  COc1ccc2ccc3c(c2c1)CN1CCc2cc(OC)c(OC)cc2C1C3 (centres undefined)  > 100 µM
1  COc1ccc(-n2c(=O)c3[nH]cnc3n(-c3ccc(OC)cc3)c2=S)cc1  > 100 µM
2  COc1ccc2[nH]c(O)c(/C=c3/cc4c(c(-c5cc(OC)c(OC)c(OC)c5)n3)=Nc3ccccc3-4)c2c1  > 100 µM

Challenge: Consider the molecule `CCOc1cccc(/C=N/NC(=O)c2ccccc2Nc2ccnc(C(F)(F)F)c2)c1O` and give its measured TGI.
Response given: > 63 µM

---

- Test system: SK-MEL-5 melanoma
- ASSAY NOTES: NCI tumour cell line growth inhibition, 48 h
PROPERTY: TGI

Below are worked cases with known answers.
COMPOUND	TGI
CC1=C2C(=O)NN=C2CCN1c1ccc(Br)cc1	> 100 µM
CCOC(=O)NC(=O)c1cn(C2OC(COC(=O)CCCCCCCCC(=O)OCC3OC(n4cc(C(=O)NC(=O)OCC)c(=O)[nH]c4=O)C(O)C3O)C(O)C2O)c(=O)[nH]c1=O (stereo not drawn)	> 100 µM

In the following, a different compound is considered.
Challenge: Consider the compound COC(=O)C(/C(=N/NC(N)=O)C(=O)Nc1ccc(C)cc1)c1nc2ccc([N+](=O)[O-])cc2[nH]c1=O (stereo not drawn) and give its measured TGI.
Response given: > 100 µM

---

- Tested on: EKVX NSCLC
- ASSAY NOTES: NCI tumour cell line growth inhibition, 48 h
# TGI per entry

Below are worked cases with known answers.
MOLECULE	ASSAY TARGET	RESULT
c1ccc(C2C3=C(Nc4ncnn42)c2ccccc2C3)cc1 (stereo not given)	EKVX NSCLC	> 100 µM
CCCCCCCCCCCCCCCCCCNc1ccn(C2OC(COP(=O)(O)OCC3OC(n4ccc(NC(=O)CCCCCCCCCCCCCCCCC)nc4=O)C(OC(C)=O)C3OC(C)=O)C(OC(C)=O)C2OC(C)=O)c(=O)n1 (stereo not given)	EKVX NSCLC	> 100 µM
O=C(CN1c2ccccc2Sc2ccccc21)N1CCNCC1	EKVX NSCLC	> 100 µM
Cn1c(N2NC(=O)C(N=Nc3ccc(S(N)(=O)=O)cc3)C2=O)nc(-c2ccco2)c(C#N)c1=O (stereo not given)	EKVX NSCLC	> 50 µM

In the following, a different molecule is considered.
Challenge: Kindly state the measured TGI obtained for `CCc1c(Oc2ccc(C(C)=O)cc2)c2ccccc2[nH]c1=O` with EKVX NSCLC.
Response given: > 66 µM
